Target or test system: Escherichia coli UDP-2,3-diacylglucosamine hydrolase (LpxH) (Escherichia coli (strain K12))
Assay summary: Enzymatic IC50 assay of Escherichia coli LpxH (UMP/CMP-Glo luminescence)
Format: biochemical
Measurement setup: Enzymatic IC50 against Escherichia coli LpxH; read-out: IC50 (converted)
So basically, the class depends on measured IC50, and the ranges are low range (below 4 nM), mid range (4 nM to below 7 nM), high range (7 nM or more)

Please review the entries below; each comes with its answer.
INSERT INTO assay_data (molecule, class_name) VALUES
  ('NCC(O)CNC(=O)[C@H]1CC[C@H](C(F)(F)c2cc(Cl)nc(N3CCN(S(=O)(=O)c4ccc(N5C[C@H](N)CC5=O)cc4)CC3)c2)CC1 (stereo partly shown) [Example 036]', 'mid range'),
  ('NCCCN(CCCN)C(=O)[C@H]1CC[C@H](C(F)(F)c2cc(Cl)nc(N3CCN(S(=O)(=O)c4ccc(N5C[C@H](N)CC5=O)cc4)CC3)c2)CC1 [Example 044]', 'high range'),
  ('COC(=O)[C@H]1CC[C@H](C(F)(F)c2cc(Cl)nc(N3CCN(S(=O)(=O)c4ccc(N5CC(N)CC5=O)cc4)CC3)c2)CC1 (stereo partly shown) [Example 001]', 'low range'),
  ('NCCCNC(=O)C12CCC(C(F)(F)c3cc(Cl)nc(N4CCN(S(=O)(=O)c5ccc(N6C[C@H](N)CC6=O)cc5)CC4)c3)(CC1)CC2 [Example 033]', 'mid range'),
  ('N[C@@H]1CC(=O)N(c2ccc(S(=O)(=O)N3CCN(c4cc(C(F)(F)c5ccc(C(=O)NCCCNCCO)nc5)cc(Cl)n4)CC3)cc2)C1 [Example 039]', 'mid range'),
  ('NCCN(CCN)CCCNC(=O)[C@H]1CC[C@H](C(F)(F)c2cc(Cl)nc(N3CCN(S(=O)(=O)c4ccc(N5C[C@H](N)CC5=O)cc4)CC3)c2)CC1 [Example 047]', 'mid range');

Query: Could you place NCC(N)CNC(=O)[C@H]1CC[C@H](C(F)(F)c2cc(Cl)nc(N3CCN(S(=O)(=O)c4ccc(N5C[C@H](N)CC5=O)cc4)CC3)c2)CC1 (stereo partly shown) [Example 077] in its proper category? Many thanks.
Response: low range

Query: Which class holds NCC(=O)NCCNC(=O)[C@H]1CC[C@H](C(F)(F)c2cc(Cl)nc(N3CCN(S(=O)(=O)c4ccc(N5C[C@H](N)CC5=O)cc4)CC3)c2)CC1 [Example 075] ?
Response: high range

Query: Form field 'band' for NCCCNC(=O)[C@H]1CC[C@H](C(F)(F)c2cc(Cl)nc(N3CCN(S(=O)(=O)c4ccc(N5C[C@H](N)CC5=O)nc4)CC3)c2)CC1 [Example 061]
Response: low range

Query: Hello team, could you let me know which band the following molecule falls into: CN(CCN)C(=O)[C@H]1CC[C@H](C(F)(F)c2cc(Cl)nc(N3CCN(S(=O)(=O)c4ccc(N5C[C@H](N)CC5=O)cc4)CC3)c2)CC1 [Example 030]
Response: high range

Query: Determine which band this molecule sits in: N[C@@H]1CC(=O)N(c2ccc(S(=O)(=O)N3CCN(c4cc(C(F)(F)c5cnc(C(=O)NCCN6CCOCC6)cn5)cc(Cl)n4)CC3)cc2)C1 [Example 025]
Response: low range

Query: Assign a bin to N[C@@H]1CC(=O)N(c2ccc(S(=O)(=O)N3CCN(c4cc(C(F)(F)[C@H]5CC[C@H](C(=O)NC6CNCC6O)CC5)cc(Cl)n4)CC3)cc2)C1 (stereo partly shown) [Example 006]
Response: mid range

Query: Assign a bin to NC(CO)CNC(=O)[C@H]1CC[C@H](C(F)(F)c2cc(Cl)nc(N3CCN(S(=O)(=O)c4ccc(N5C[C@H](N)CC5=O)cc4)CC3)c2)CC1 (stereo partly shown) [Example 052]
Response: low range

Query: Which category fits this record: NCC1(NC(=O)[C@H]2CC[C@H](C(F)(F)c3cc(Cl)nc(N4CCN(S(=O)(=O)c5ccc(N6C[C@H](N)CC6=O)cc5)CC4)c3)CC2)CC1 [Example 012]
Response: low range

Query: Band for the recorded IC50 of Cc1cc(C(F)(F)[C@H]2CC[C@H](C(=O)NCCCN)CC2)nc(N2CCN(S(=O)(=O)c3ccc(N4C[C@H](N)CC4=O)cc3)CC2)n1 [Example 054] ?
Response: high range

Query: Determine which band this molecule sits in: N[C@@H]1CC(=O)N(c2ccc(S(=O)(=O)N3CCN(c4cc(C(F)(F)[C@H]5CC[C@H](C(=O)NCCN6CCCC6)CC5)cc(Cl)n4)CC3)cc2)C1 [Example 009]
Response: low range

* * *

Answer each item with its documented IC50.
Target or test system: Escherichia coli UDP-2,3-diacylglucosamine hydrolase (LpxH) (Escherichia coli (strain K12), UniProt P43341)
Sequence (P43341 whole entry): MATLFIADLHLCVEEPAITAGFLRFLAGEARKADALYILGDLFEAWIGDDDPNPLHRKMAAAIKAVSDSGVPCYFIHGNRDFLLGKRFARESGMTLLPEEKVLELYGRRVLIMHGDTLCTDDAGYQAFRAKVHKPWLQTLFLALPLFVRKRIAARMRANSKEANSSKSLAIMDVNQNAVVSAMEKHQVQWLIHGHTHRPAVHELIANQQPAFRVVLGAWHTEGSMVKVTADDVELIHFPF
Assay summary: Enzymatic IC50 assay of Escherichia coli LpxH (UMP/CMP-Glo luminescence)
Format: biochemical
Measurement setup: Enzymatic IC50 against Escherichia coli LpxH; read-out: IC50 (converted)
One number for each entry, in nM.

Example results:
INSERT INTO assay_data (compound, numeric_readout) VALUES
  ('N[C@@H]1CC(=O)N(c2ccc(S(=O)(=O)N3CCN(c4cc(C(F)(F)[C@H]5CC[C@H](C(=O)N6C[C@H](N)C[C@H](N)C6)CC5)cc(Cl)n4)CC3)cc2)C1 [Example 048]', 18.3),
  ('C[N+]1(CCCNC(=O)c2ccc(C(F)(F)c3cc(Cl)nc(N4CCN(S(=O)(=O)c5ccc(N6C[C@H](N)CC6=O)cc5)CC4)c3)cc2)CCCC1 [Example 038]', 4.1),
  ('NCC1CN(C(=O)[C@H]2CC[C@H](C(F)(F)c3cc(Cl)nc(N4CCN(S(=O)(=O)c5ccc(N6C[C@H](N)CC6=O)cc5)CC4)c3)CC2)C1 [Example 057]', 2.94),
  ('N[C@@H]1CC(=O)N(c2ccc(S(=O)(=O)N3CCN(c4cc(C(F)(F)[C@H]5CC[C@H](C(=O)N[C@H]6CNC[C@H]6N)CC5)cc(Cl)n4)CC3)cc2)C1 (stereo in doubt) [Example 011]', 17.3),
  ('N[C@@H]1CC(=O)N(c2ccc(S(=O)(=O)N3CCN(c4cc(C(F)(F)[C@H]5CC[C@H](C(=O)NNC(=O)C6CCNCC6)CC5)cc(Cl)n4)CC3)cc2)C1 [Example 051]', 12.2);

Now consider the entry below.
Quick note, IC50 for CC1(N)CCN(C(=O)[C@H]2CC[C@H](C(F)(F)c3cc(Cl)nc(N4CCN(S(=O)(=O)c5ccc(N6C[C@H](N)CC6=O)cc5)CC4)c3)CC2)CC1 [Example 004] landed at 8.47

* * *

Target or test system: Escherichia coli UDP-2,3-diacylglucosamine hydrolase (LpxH) (Escherichia coli (strain K12))
Assay summary: Enzymatic IC50 assay of Escherichia coli LpxH (UMP/CMP-Glo luminescence)
Type: biochemical
Measurement setup: Enzymatic IC50 against Escherichia coli LpxH; read-out: IC50 (converted)
Readout kind: IC50

INSERT INTO results (compound, result) VALUES
  ('NCCCNC(=O)[C@H]1CC[C@H](C(F)(F)c2cc(Cl)nc(N3CCN(S(=O)(=O)c4ccc(N5CC(N6CCNCC6)CC5=O)cc4)CC3)c2)CC1 (some centres unmarked)', '< 2.71 nM'),
  ('NC(=O)[C@H]1CC[C@H](C(F)(F)c2cc(Cl)nc(N3CCN(S(=O)(=O)c4ccc(N5C[C@H](N)CC5=O)cc4)CC3)c2)CC1', '< 3.27 nM'),
  ('NCCCNC(=O)[C@H]1CC[C@H](C(F)(F)c2cc(Cl)nc(N3CCN(S(=O)(=O)c4ccc(N5C[C@H](CO)OC5=O)cc4)CC3)c2)CC1', '< 2.92 nM');

Value sought for every listed compound: IC50.
1. C[N+](C)(CCN)CCNC(=O)[C@H]1CC[C@H](C(F)(F)c2cc(Cl)nc(N3CCN(S(=O)(=O)c4ccc(N5C[C@H](N)CC5=O)cc4)CC3)c2)CC1
2. NCCCNC(=O)[C@H]1CC[C@H](C(F)(F)c2cc(Cl)nc(N3CCN(S(=O)(=O)c4ccc(N5C[C@@H](CO)OC5=O)cc4)CC3)c2)CC1

Response:
< 2.75 nM
< 2.92 nM
